# System: L. major Empa-12 intracellular amastigotes
# PROTOCOL: Anti-amastigote assay in THP-1-derived macrophages, L. major Empa-12
# Assay type: cell-based, Leishmania major
# PROTOCOL_CONDITIONS: Leishmania major, Macrophage; Empa-12, intramacrophage, 72 h; read-out: Amastigotes IC50 (in brackets) (converted)
MEASURE: IC50 (µM)
One number for each entry, in µM.

C[C@@H]1[C@H](O)[C@@H](C)/C=C/C=C/C=C/C=C/C=C/C=C/C=C/[C@H](O[C@@H]2O[C@H](C)[C@@H](O)[C@H](N)[C@@H]2O)C[C@@H]2O[C@](O)(C[C@@H](O)C[C@@H](O)[C@H](O)CC[C@@H](O)C[C@@H](O)CC(=O)O[C@H]1C)C[C@H](O)[C@H]2C(=O)O : 0.054

Your task in this section: give IC50 for each listed record.
1. CNC[C@H](O)c1cccc(O)c1
2. CCCCOc1cc(C(=O)NCCN(CC)CC)c2ccccc2n1
3. CCCC(=O)Nc1ccc(OCC(O)CNC(C)C)c(C(C)=O)c1 (centres unmarked)
4. CCCNC(C)C(=O)Nc1ccccc1C (centres unmarked)

1: 400; 2: 2.19; 3: 59.8; 4: 139
